Observed IC50, system JAK1 (Homo sapiens, UniProt P23458).

- MOLECULE: "C/C=C/[C@H](C1CC1)n1cc(-c2nc(-c3cnn(C)c3)cc3nccn23)cn1 [Example 38]"
  IC50: "> 1000 nM"
- MOLECULE: "Cn1cc(-c2cc3nccn3c(-c3cnn(C4(CCF)CN(S(=O)(=O)CC5CC5)C4)c3)n2)cn1 [Example 87]"
  IC50: "100 to 1000 nM"
- MOLECULE: "CC(=O)CC(C1CC1)n1cc(-c2nc(-c3cnn(C)c3)cc3nccn23)cn1 (stereo not shown) [Example 61]"
  IC50: "> 1000 nM"
- MOLECULE: "C=CC1(n2ccc(-c3nc(-c4cnn(C)c4)cc4nccn34)c2)CN(S(=O)(=O)C(F)(F)F)C1 [Example 27]"
  IC50: "10 to 100 nM"

###

# TARGET ENTITY: JAK3 (Homo sapiens, UniProt P52333)
# Sequence (P52333 1-1124): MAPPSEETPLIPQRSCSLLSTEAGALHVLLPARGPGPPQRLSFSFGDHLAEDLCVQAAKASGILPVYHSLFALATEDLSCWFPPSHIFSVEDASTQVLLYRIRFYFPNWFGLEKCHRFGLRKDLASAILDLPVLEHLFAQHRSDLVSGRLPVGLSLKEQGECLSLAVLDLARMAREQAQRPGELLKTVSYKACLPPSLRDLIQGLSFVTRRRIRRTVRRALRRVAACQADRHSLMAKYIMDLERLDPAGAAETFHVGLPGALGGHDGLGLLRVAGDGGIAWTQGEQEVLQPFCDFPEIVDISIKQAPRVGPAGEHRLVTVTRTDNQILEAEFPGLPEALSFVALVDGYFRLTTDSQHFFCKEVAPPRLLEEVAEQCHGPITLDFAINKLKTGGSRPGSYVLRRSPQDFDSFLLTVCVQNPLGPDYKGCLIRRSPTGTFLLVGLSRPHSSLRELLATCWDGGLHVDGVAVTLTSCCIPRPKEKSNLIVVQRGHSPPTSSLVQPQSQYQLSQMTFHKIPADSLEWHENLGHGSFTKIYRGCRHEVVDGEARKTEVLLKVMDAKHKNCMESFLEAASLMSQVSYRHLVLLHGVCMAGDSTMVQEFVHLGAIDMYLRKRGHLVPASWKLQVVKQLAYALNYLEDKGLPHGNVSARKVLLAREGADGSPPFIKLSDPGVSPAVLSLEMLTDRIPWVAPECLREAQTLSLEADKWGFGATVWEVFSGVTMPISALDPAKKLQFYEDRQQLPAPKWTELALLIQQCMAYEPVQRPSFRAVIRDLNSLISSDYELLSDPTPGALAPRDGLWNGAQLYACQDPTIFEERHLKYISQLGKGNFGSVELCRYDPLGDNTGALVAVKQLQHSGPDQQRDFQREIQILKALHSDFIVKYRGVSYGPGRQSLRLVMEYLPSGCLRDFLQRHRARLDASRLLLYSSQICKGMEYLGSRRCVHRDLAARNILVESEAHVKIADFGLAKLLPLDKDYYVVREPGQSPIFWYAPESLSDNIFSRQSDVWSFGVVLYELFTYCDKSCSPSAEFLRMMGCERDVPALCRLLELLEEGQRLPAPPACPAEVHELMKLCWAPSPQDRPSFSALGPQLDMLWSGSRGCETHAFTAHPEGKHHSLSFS
pIC50: −log10 of the molar value.

- MOLECULE: "Cn1cc(-c2cc3nccn3c(-c3cnn([C@H](CC=C(F)F)C4CC4)c3)n2)cn1 [Example 49]"
  pIC50: "7.00 to 8.00"
- MOLECULE: "Cn1cc(-c2cc3nccn3c(-c3cnn(C(CCC(F)F)C4CC4)c3)n2)cn1 (stereo not shown) [Example 47]"
  pIC50: "6.00 to 7.00"
- MOLECULE: "COCCn1cc(-c2cc3nccn3c(-c3cnn(C4(CCF)CN(S(=O)(=O)C(F)(F)F)C4)c3)n2)cn1 [Example 89]"
  pIC50: "6.00 to 7.00"
- MOLECULE: "Cn1ccc(-c2cc3nccn3c(-c3cnn(C4(CCF)CN(S(=O)(=O)C(F)(F)F)C4)c3)n2)cc1=O [Example 79]"
  pIC50: "6.00 to 7.00"

###

# TARGET ENTITY: Human Tyk2 kinase domain (Homo sapiens)
# Sequence (P29597 886-1187): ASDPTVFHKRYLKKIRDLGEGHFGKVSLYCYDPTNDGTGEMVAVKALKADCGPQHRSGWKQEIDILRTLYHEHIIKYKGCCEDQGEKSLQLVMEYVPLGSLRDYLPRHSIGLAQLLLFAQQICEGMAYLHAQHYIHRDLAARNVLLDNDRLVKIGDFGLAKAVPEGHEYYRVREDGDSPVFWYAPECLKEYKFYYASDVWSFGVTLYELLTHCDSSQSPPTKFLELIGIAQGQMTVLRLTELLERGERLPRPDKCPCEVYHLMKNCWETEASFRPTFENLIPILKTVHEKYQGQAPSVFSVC
Reported IC50 values follow for various compounds

- COMPOUND: "Cn1cc(-c2cc3nccn3c(-c3cnn(C4(C)CN(S(=O)(=O)C(F)(F)F)C4)c3)n2)cn1"
  TARGET ENTITY: "Human Tyk2 kinase domain (Homo sapiens)"
  IC50: "10 to 100 nM"
- COMPOUND: "Cn1cc(-c2cc3nccn3c(-c3cnn([C@@H](CCF)C4CCC4)c3)n2)cn1"
  TARGET ENTITY: "Human Tyk2 kinase domain (Homo sapiens)"
  IC50: "10 to 100 nM"
- COMPOUND: "Cn1cc(-c2cc3nccn3c(-c3cnn([C@H](CCF)C4CCC4)c3)n2)cn1"
  TARGET ENTITY: "Human Tyk2 kinase domain (Homo sapiens)"
  IC50: "< 10 nM"
- COMPOUND: "Cn1cc(-c2cc3nccn3c(-c3cnn(C4(CCF)CN(S(=O)(=O)NC5CC5)C4)c3)n2)cn1"
  TARGET ENTITY: "Human Tyk2 kinase domain (Homo sapiens)"
  IC50: "100 to 1000 nM"
- COMPOUND: "CCC(CCF)n1cc(-c2nc(-c3cnn(C)c3)cc3nccn23)cn1 (stereo not drawn)"
  TARGET ENTITY: "Human Tyk2 kinase domain (Homo sapiens)"
  IC50: "10 to 100 nM"
- COMPOUND: "Cn1cc(-c2cc3nccn3c(-c3cnn(C4(CC=C(F)F)CN(S(=O)(=O)C(F)(F)F)C4)c3)n2)cn1"
  TARGET ENTITY: "Human Tyk2 kinase domain (Homo sapiens)"
  IC50: "< 10 nM"
- COMPOUND: "COCCC(c1ccc(F)cc1)n1cc(-c2nc(-c3cnn(C)c3)cc3nccn23)cn1 (stereo not drawn)"
  TARGET ENTITY: "Human Tyk2 kinase domain (Homo sapiens)"
  IC50: "100 to 1000 nM"
- COMPOUND: "O=S(=O)(N1CC(CCF)(n2cc(-c3nc(-c4cnn(C5CCOCC5)c4)cc4nccn34)cn2)C1)C(F)(F)F"
  TARGET ENTITY: "Human Tyk2 kinase domain (Homo sapiens)"
  IC50: "< 10 nM"
- COMPOUND: "Cn1cc(-c2cc3nccn3c(-c3cnn(C(CCF)C4CCC4)c3)n2)cn1 (stereo not drawn)"
  TARGET ENTITY: "Human Tyk2 kinase domain (Homo sapiens)"
  IC50: "< 10 nM"
- COMPOUND: "CCC1(n2cc(-c3nc(-c4cnn(C)c4)cc4nccn34)cn2)CN(S(=O)(=O)C(F)(F)F)C1"
  TARGET ENTITY: "Human Tyk2 kinase domain (Homo sapiens)"
  IC50: "10 to 100 nM"
- COMPOUND: "C#CCCn1cc(-c2nc(-c3cnn(C)c3)cc3nccn23)cn1"
  TARGET ENTITY: "Human Tyk2 kinase domain (Homo sapiens)"
  IC50: "10 to 100 nM"
- COMPOUND: "CCCCC1(n2cc(-c3nc(-c4cnn(C)c4)cc4nccn34)cn2)CN(S(=O)(=O)C(F)(F)F)C1"
  TARGET ENTITY: "Human Tyk2 kinase domain (Homo sapiens)"
  IC50: "10 to 100 nM"
- COMPOUND: "Cn1cc(-c2cc3nccn3c(-c3cnn(C4(CCF)CN(S(=O)(=O)CC(F)(F)F)C4)c3)n2)cn1"
  TARGET ENTITY: "Human Tyk2 kinase domain (Homo sapiens)"
  IC50: "100 to 1000 nM"
- COMPOUND: "Cn1cc(-c2cc3nccn3c(-c3cnn(C4(CCF)CN(CC(F)(F)F)C4)c3)n2)cn1"
  TARGET ENTITY: "Human Tyk2 kinase domain (Homo sapiens)"
  IC50: "10 to 100 nM"
- COMPOUND: "O=S(=O)(N1CC(CCF)(n2cc(-c3nc(-c4cn[nH]c4)cc4nccn34)cn2)C1)C(F)(F)F"
  TARGET ENTITY: "Human Tyk2 kinase domain (Homo sapiens)"
  IC50: "< 10 nM"
- COMPOUND: "COCCC1(n2cc(-c3nc(-c4cnn(C)c4)cc4nccn34)cn2)CN(C(=O)N(C)C)C1"
  TARGET ENTITY: "Human Tyk2 kinase domain (Homo sapiens)"
  IC50: "> 1000 nM"
- COMPOUND: "Cn1cc(-c2cc3nccn3c(-c3ccn([C@@H](C[C@@H](O)C(F)(F)F)C4CC4)c3)n2)cn1"
  TARGET ENTITY: "Human Tyk2 kinase domain (Homo sapiens)"
  IC50: "100 to 1000 nM"
- COMPOUND: "Cn1cc(-c2cc3nccn3c(-c3cnn(C(CCO)C4CCCCC4)c3)n2)cn1 (stereo not drawn)"
  TARGET ENTITY: "Human Tyk2 kinase domain (Homo sapiens)"
  IC50: "100 to 1000 nM"
